Listed below: DC50 values for each entry.
# target system: GSPT1 (Homo sapiens, UniProt P15170+Q96SW2)
# Construct: host or cells: HEK293 LgBiT cell line
# Sequence (P15170 whole entry): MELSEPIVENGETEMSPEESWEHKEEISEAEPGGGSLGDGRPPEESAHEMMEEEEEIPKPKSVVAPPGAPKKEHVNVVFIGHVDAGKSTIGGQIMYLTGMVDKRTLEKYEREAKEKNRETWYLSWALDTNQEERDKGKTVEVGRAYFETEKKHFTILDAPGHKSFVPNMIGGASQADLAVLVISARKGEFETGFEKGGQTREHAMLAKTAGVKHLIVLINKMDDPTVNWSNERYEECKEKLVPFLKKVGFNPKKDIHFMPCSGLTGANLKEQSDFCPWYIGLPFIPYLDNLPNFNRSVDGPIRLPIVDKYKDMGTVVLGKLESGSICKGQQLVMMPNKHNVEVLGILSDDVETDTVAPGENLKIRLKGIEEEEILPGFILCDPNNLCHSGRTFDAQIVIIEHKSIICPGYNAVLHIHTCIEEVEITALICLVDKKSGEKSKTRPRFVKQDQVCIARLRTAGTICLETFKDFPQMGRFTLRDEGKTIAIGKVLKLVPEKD
# Sequence (Q96SW2 whole entry): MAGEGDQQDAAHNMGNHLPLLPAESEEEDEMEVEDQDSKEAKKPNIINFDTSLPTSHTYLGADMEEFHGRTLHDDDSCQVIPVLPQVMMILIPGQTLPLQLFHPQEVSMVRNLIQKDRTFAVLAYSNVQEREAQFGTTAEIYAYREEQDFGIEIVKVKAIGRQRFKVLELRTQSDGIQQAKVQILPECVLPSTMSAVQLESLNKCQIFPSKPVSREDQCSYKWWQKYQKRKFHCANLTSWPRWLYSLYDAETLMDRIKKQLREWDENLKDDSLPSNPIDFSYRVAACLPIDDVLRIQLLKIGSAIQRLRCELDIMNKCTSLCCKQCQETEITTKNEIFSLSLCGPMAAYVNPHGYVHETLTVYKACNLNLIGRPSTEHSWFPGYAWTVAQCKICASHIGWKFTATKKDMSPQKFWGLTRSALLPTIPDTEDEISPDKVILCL
# Sequence (Q16531 whole entry partner): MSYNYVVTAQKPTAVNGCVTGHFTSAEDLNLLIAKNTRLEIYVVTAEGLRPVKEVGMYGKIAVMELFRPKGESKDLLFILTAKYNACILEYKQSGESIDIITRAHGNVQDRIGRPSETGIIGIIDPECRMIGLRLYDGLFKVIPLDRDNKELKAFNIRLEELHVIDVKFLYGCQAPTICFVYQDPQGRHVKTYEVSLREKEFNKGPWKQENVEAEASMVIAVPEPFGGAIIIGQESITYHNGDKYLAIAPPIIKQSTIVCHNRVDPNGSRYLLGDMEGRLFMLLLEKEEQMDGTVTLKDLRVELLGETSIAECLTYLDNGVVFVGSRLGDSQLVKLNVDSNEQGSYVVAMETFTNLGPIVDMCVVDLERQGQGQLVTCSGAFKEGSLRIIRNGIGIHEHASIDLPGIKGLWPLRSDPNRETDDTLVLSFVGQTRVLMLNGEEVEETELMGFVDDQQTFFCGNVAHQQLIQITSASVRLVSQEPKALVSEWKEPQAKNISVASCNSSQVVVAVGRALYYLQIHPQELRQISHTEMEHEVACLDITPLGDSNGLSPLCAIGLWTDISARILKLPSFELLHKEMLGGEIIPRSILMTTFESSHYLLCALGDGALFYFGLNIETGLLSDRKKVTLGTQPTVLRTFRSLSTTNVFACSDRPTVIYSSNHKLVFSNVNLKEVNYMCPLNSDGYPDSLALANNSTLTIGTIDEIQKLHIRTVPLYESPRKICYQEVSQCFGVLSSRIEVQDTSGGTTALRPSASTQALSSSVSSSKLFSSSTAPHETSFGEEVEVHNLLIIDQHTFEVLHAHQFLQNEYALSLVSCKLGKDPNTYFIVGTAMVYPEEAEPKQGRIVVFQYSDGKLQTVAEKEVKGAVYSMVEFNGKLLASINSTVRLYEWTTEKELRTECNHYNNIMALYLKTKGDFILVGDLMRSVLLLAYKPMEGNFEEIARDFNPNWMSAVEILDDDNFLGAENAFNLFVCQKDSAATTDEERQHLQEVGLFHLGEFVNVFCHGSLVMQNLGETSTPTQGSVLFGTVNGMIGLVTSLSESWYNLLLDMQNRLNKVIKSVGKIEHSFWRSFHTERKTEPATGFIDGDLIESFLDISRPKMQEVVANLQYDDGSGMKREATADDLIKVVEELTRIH
# procedure details: GSPT1 HiBit degradation assay
# Type: cell-based
# assay setup: Table 3A; HEK293 LgBiT cells expressing GSPT1_HiBiT, luminescence after 6 hours

Answered cases to consult:
1) CN(C/C=C/C(=O)N1CCN(c2nc(OC[C@@H]3CCCN3C)nc3c2CCN(c2cccc4cccc(Cl)c24)C3)C[C@@H]1CC#N)CCOCCOCCOCCOCCOCCOCCOCCOCCOCCCCCc1cc(Cl)cc(NC(=O)NCc2ccc3c(c2)CN(C2CCC(=O)NC2=O)C3=O)c1 (stereo partly shown)    0.25 to 5 µM
2) COc1cc(N(C)CCN(C)C)c(NC(=O)/C=C/CN(C)CCOCCOCCOCCOCCOCCOCCOCCCCCc2cc(Cl)cc(NC(=O)NCc3ccc4c(c3)CN(C3CCC(=O)NC3=O)C4=O)c2)cc1Nc1nccc(-c2cn(C)c3ccccc23)n1 (stereo not shown)    0.25 to 5 µM

Value lookup for DC50; key = COc1cc(N2CCN(C(=O)COCCOCCOCCOCCOCCOCCOc3cc(Cl)cc(NC(=O)NCc4ccc5c(c4)CN(C4CCC(=O)NC4=O)C5=O)c3)CC2)ccc1Nc1ncc(Cl)c(Nc2ccccc2P(C)(C)=O)n1 (stereo not shown)
> 10 µM

Try this compound next: CN(CCOCCOCCOCCOCCOCCOCCOCCOCCOCCCCCc1cc(Cl)cc(NC(=O)NCc2ccc3c(c2)CN(C2CCC(=O)NC2=O)C3=O)c1)C(=O)CO[C@H]1CC[C@H]2[C@@H]3CC[C@H]4CC(=O)CC[C@]4(C)[C@H]3CC[C@]12C (stereo partly shown)
0.25 to 5 µM

* * *

# target system: GSPT1 (Homo sapiens, UniProt P15170+Q96SW2)
# Construct: host or cells: HEK293 LgBiT cell line
# procedure details: GSPT1 HiBit degradation assay
# Format: cell-based
# assay setup: Table 3; HEK293 LgBiT cells expressing GSPT1_HiBiT, luminescence after 6 hours
# DC50 listing for each entry below

1) C=CC(=O)Nc1cc(Nc2nccc(-c3cn(C)c4ccccc34)n2)c(OC)cc1N(C)CCN(C)CCOCCOCCOCCOCCOCCOCCOCCOCCOCCOCCOc1cc(Cl)cc(NC(=O)NCc2ccc3c(c2)CN(C2CCC(=O)NC2=O)C3=O)c1 (centres unmarked)    5 to 10 µM
2) C=C(F)C(=O)N1CCN(c2nc(OC[C@@H]3CCCN3CCOCCOCCOCCOCCOCCOCCOCCOCCOCCOCCOCCOCCc3cc(Cl)cc(NC(=O)NCc4ccc5c(c4)CN(C4CCC(=O)NC4=O)C5=O)c3)nc3c2CCN(c2cccc4cccc(Cl)c24)C3)C[C@@H]1CC#N (some centres unmarked)    0.25 to 5 µM
3) C=CC(=O)N1CCN(c2nc(NCCC(=O)N(C)CCOCCOCCOCCOCCOCCOCCc3cc(Cl)cc(NC(=O)NCc4ccc5c(c4)CN(C4CCC(=O)NC4=O)C5=O)c3)nc3c(F)c(-c4cc(O)cc5ccccc45)c(Cl)cc23)CC1 (centres unmarked)    > 10 µM
4) CN(C/C=C/C(=O)N1CCC([C@@H]2CCNc3c(C(N)=O)c(-c4ccc(Oc5ccccc5)cc4)nn32)CC1)CCOCCOCCOCCOCCOCCOCCOCCOCCCCCCCCc1cc(Cl)cc(NC(=O)NCc2ccc3c(c2)CN(C2CCC(=O)NC2=O)C3=O)c1 (some centres unmarked)    < 0.25 µM
5) C=CC(=O)Nc1cc(Nc2nccc(-c3cn(C)c4ccccc34)n2)c(OC)cc1N(C)CCN(C)CCOCCOCCOCCOCCCCCCCCc1cc(Cl)cc(NC(=O)NCc2ccc3c(c2)CN(C2CCC(=O)NC2=O)C3=O)c1 (centres unmarked)    < 0.25 µM
6) C=C(F)C(=O)N1CCN(c2nc(OC[C@@H]3CCCN3CCOCCOCCOCCOCCOCCOCCc3cc(Cl)cc(NC(=O)NCc4ccc5c(c4)CN(C4CCC(=O)NC4=O)C5=O)c3)nc3c2CCN(c2cccc4cccc(Cl)c24)C3)C[C@@H]1CC#N (some centres unmarked)    5 to 10 µM
7) CC1(C)[C@H](NC(=O)c2ccc(OCCOCCOCCOCCOCCOCCOCCOCCOCCc3cc(Cl)cc(NC(=O)NCc4ccc5c(c4)CN(C4CCC(=O)NC4=O)C5=O)c3)cc2)C(C)(C)[C@H]1Oc1ccc(C#N)c(Cl)c1 (some centres unmarked)    0.25 to 5 µM

Could you now consider this next compound?
Reported DC50 for GSPT1 (Homo sapiens, UniProt P15170+Q96SW2), given CCN(CCOCCOCCOCCOCCOCCOCCCCCCCCc1cc(Cl)cc(NC(=O)NCc2ccc3c(c2)CN(C2CCC(=O)NC2=O)C3=O)c1)CCOc1ccc(C(=O)c2c(-c3ccc(O)cc3)sc3cc(O)ccc23)cc1 (centres unmarked) ?
< 0.25 µM

* * *

The following compounds are shown together with reported DC50 values.
# target system: GSPT1 (Homo sapiens, UniProt P15170+Q96SW2)
# Construct: host or cells: HEK293 LgBiT cell line
# procedure details: GSPT1 HiBit degradation assay
# Format: cell-based
# assay setup: Table 3; HEK293 LgBiT cells expressing GSPT1_HiBiT, luminescence after 6 hours
# Text: Promega developed a HEK293 cell line that constitutively expresses LgBiT protein and GSPT1_HiBiT fusion protein. […] Endurazine, a cell permeable small molecule, is converted by cellular esterases into furimazine, which the luciferase enzyme uses as a substrate to generate luminescence. […] This prevents formation of fully functional luciferase, leading to a loss in luminescence. GSPT1 degradation therefore correlates with a decrease in luminescence and can be measured continuously over time. […]

1. CC1(C)[C@H](NC(=O)c2ccc(OCCOCCOCCOCCOCCOCCOCCc3cc(Cl)cc(NC(=O)NCc4ccc5c(c4)CN(C4CCC(=O)NC4=O)C5=O)c3)cc2)C(C)(C)[C@H]1Oc1ccc(C#N)c(Cl)c1 (stereo partly shown)    < 250 nM
2. C=C(F)C(=O)N1CCN(c2nc(OC[C@@H]3CCCN3CCCCCCCCc3cc(Cl)cc(NC(=O)NCc4ccc5c(c4)CN(C4CCC(=O)NC4=O)C5=O)c3)nc3c2CCN(c2cccc4cccc(Cl)c24)C3)C[C@@H]1CC#N (stereo partly shown)    250 to 5000 nM
3. CCN(CCCCCCCCc1cc(Cl)cc(NC(=O)NCc2ccc3c(c2)CN(C2CCC(=O)NC2=O)C3=O)c1)CCOc1ccc(C(=O)c2c(-c3ccc(O)cc3)sc3cc(O)ccc23)cc1 (stereo not shown)    < 250 nM

# evaluate next
Which value of DC50 has been reported for C=C(F)C(=O)N1CCN(c2nc(OC[C@@H]3CCCN3CCOCCOCCOCCOCCOCCOCCOCCOCCOCCOCCOCCOCCOCCOCCCCCCCCc3cc(Cl)cc(NC(=O)NCc4ccc5c(c4)CN(C4CCC(=O)NC4=O)C5=O)c3)nc3c2CCN(c2cccc4cccc(Cl)c24)C3)C[C@@H]1CC#N (stereo partly shown) in the records?
< 250 nM

* * *

# System: HeLa KRas G12C cells
# procedure details: Cellular growth inhibition assay (CTG), HeLa KRas G12C cells
# Type: cell-based
# assay setup: Homo sapiens, CellTiter-Glo 2.0, day-5
Overview of reported GI50 across a group of molecules:

1) C=C(F)C(=O)N1CCN(c2nc(OC[C@@H]3CCCN3CCOCCOCCOCCOCCCCCCCCc3cc(Cl)cc(NC(=O)NCc4ccc5c(c4)CN(C4CCC(=O)NC4=O)C5=O)c3)nc3c2CCN(c2cccc4cccc(Cl)c24)C3)C[C@@H]1CC#N (stereo partly drawn)    < 1 µM
2) C=C(F)C(=O)N1CCN(c2nc(OC[C@@H]3CCCN3CCOCCOCCOCCOCCOCCOCCOCCOCCOc3cc(Cl)cc(NC(=O)NCc4ccc5c(c4)CN(C4CCC(=O)NC4=O)C5=O)c3)nc3c2CCN(c2cccc4cccc(Cl)c24)C3)C[C@@H]1CC#N (stereo partly drawn)    > 10 µM

// switching to the query molecule
So what does the record say about GI50 for C=CC(=O)N1CCN(c2nc(NCCOCCOCCOCCOCCOCCOCCOCCOCCOCCOCCOc3cc(Cl)cc(NC(=O)NCc4ccc5c(c4)CN(C4CCC(=O)NC4=O)C5=O)c3)nc3c(F)c(-c4cc(O)cc5ccccc45)c(Cl)cc23)CC1 (stereo not drawn) ?
> 10 µM

* * *

Reported DC50 is given for each of the following compounds.
# target system: GSPT1 (Homo sapiens, UniProt P15170+Q96SW2)
# Construct: host or cells: HEK293 LgBiT cell line
# procedure details: GSPT1 HiBit degradation assay
# Assay type: cell-based
# assay setup: Table 3; HEK293 LgBiT cells expressing GSPT1_HiBiT, luminescence after 6 hours

Field: example entries. Status: answers known.
1. C=C(F)C(=O)N1CCN(c2nc(OC[C@@H]3CCCN3CCOCCOCCOCCOCCOCCOCCOCCOCCOCCCCCc3cc(Cl)cc(NC(=O)NCc4ccc5c(c4)CN(C4CCC(=O)NC4=O)C5=O)c3)nc3c2CCN(c2cccc4cccc(Cl)c24)C3)C[C@@H]1CC#N (stereo partly shown) [Compound I-44]    0.25 to 5 µM
2. C=CC(=O)N1CCN(c2nc(NCCOCCOCCOCCOCCOCCOCCc3cc(Cl)cc(NC(=O)NCc4ccc5c(c4)CN(C4CCC(=O)NC4=O)C5=O)c3)nc3c(F)c(-c4cc(O)cc5ccccc45)c(Cl)cc23)CC1 (stereo not shown) [Compound I-7]    5 to 10 µM
3. CCN(CCOCCOCCOCCOCCCCCCCCCCCCCCc1cc(Cl)cc(NC(=O)NCc2ccc3c(c2)CN(C2CCC(=O)NC2=O)C3=O)c1)CCOc1ccc(C(=O)c2c(-c3ccc(O)cc3)sc3cc(O)ccc23)cc1 (stereo not shown) [Compound I-59]    0.25 to 5 µM

Proceed to the following item.
Find the recorded DC50 belonging to C=CC(=O)N1CCN(c2nc(NCCC(=O)N(C)CCOCCOCCOCCOCCOCCOCCOCCOCCc3cc(Cl)cc(NC(=O)NCc4ccc5c(c4)CN(C4CCC(=O)NC4=O)C5=O)c3)nc3c(F)c(-c4cc(O)cc5ccccc45)c(Cl)cc23)CC1 (stereo not shown) [Compound I-18] and report it.
> 10 µM

Values were extracted from patent US20240238424A1.
